- METHOD_NOTES: soluble on expression in E. coli; label from the status in PepcDB or PDB records
REPORTED_METRIC: soluble on expression in E. coli

MNIPKVQFNPKVHKNIGIEIIELSDIYKRSDDDLENFIAKPHRIKFHNILYITQGRGTHFIDFNTYTTQAGSVVFINKNQVHAFDLINQPQGKLIIFTDEYLDTILTTIKTPLSAHNYLLTSYSPTFSLSKKIRNTCDVLLTEIEKEYQVKDPNLNFLNLIFSAVLTKLSSERTRSFEQYLSESRTEKFMTFIELLEVNYTNTRDAKIYADMLHMTYKSLNQICKLATKQTTKQLIDAYIILEAKRKLSIENIRVQQLADELGFDEVTNFVKYFKKNTLLTPSQFKKLNQG; not soluble
MISHSELRKLFYSADAVCFDVDSTVIREEGIDELAKICGVEDAVSEMTRRAMGGAVPFKAALTERLALIQPSREQVQRLIAEQPPHLTPGIRELVSRLQERNVQVFLISGGFRSIVEHVASKLNIPATNVFANRLKFYFNGEYAGFDETQPTAESGGKGKVIKLLKEKFHFKKIIMIGDGATDMEACPPADAFIGFGGNVIRQQVKDNAKWYITDFVELLGELEE; soluble
MAKIDIIDNYETLLISVEEIRASLESLHAWLDKDIDWDSQCDWYDFISQHSSQIAILNLIMYRLDSLEVEHRSVIENTMKGK; not soluble
MAHHHHHHMGKHMNNQDFAETEQAARAIRKLLNGEIDTIKLENGNKLKIRSSDEKDDAHKRHNDKTNYSFIDNSEEENVQTNLLRKNETVDAGSKIVEDQEDFYILDNESIEAIANKISMENKFHEFEAEAFAQSLKDIIRSLNN; soluble
